Answer each item with its documented cGMP Assay (EC50, pM) w/BSA.
Biological target: T1, human NPRA (human, UniProt P16066 33-1061)
T1 sequence (looked up): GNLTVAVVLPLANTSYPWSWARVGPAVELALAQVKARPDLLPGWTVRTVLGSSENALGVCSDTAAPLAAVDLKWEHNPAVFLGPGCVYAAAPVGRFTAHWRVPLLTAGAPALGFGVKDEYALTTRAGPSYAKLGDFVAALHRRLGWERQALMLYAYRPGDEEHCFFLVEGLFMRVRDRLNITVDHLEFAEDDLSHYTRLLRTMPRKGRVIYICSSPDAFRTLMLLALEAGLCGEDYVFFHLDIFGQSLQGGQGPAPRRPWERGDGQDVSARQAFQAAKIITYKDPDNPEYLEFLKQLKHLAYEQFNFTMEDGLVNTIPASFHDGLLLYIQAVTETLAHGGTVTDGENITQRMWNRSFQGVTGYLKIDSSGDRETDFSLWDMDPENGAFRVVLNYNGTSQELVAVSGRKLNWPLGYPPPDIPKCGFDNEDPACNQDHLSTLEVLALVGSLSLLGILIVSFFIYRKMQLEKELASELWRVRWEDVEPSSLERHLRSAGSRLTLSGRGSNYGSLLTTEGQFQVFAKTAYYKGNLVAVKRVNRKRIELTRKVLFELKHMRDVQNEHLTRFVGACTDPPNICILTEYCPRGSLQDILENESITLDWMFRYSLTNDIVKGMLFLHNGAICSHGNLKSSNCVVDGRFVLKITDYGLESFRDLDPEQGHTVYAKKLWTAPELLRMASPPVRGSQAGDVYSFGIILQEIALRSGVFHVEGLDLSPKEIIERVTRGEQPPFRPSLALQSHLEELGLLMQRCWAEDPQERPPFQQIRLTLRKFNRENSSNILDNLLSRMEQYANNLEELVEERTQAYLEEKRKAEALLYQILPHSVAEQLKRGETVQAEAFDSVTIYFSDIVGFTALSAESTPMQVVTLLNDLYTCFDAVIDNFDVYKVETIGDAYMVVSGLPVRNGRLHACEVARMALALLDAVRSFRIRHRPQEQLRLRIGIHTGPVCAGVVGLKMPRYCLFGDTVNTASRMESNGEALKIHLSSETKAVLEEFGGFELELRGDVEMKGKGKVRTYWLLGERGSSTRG
Test: cell-based or functional assay
Numbered stars: 1 amine (or outer) side, 2 acyl side, 3 side chain; on linkers, the order of the positions; unused ones are H or OH. Bridge positions count the residues as written; N and C are the ends. Square brackets hold non-standard residues; d marks the D form. * marks the point of attachment. thioacetal = thioacetal linkage between two cysteines (intrachain bond at the bracketed Cys); C20 diacid = O=C(O)CCCCCCCCCCCCCCCCCCC(=O)*; γGlu = O=C(O)[C@H](CCC(=O)[*:2])N[*:1]; 4Pal = N[C@@H](Cc1ccncc1)C(=O)O; βAla = NCCC(=O)O
Unit pM implied. Number only.

The binder identified as SXRRSSCFGGRIDRIGHQSGLGCPSFRHGGPSSGAPPPS (HOOC-(CH2)18-CO-(γGlu)-EKEKEKG-PEG24-S-4Pal-RRSS[CFGGRIDRIGHQSGLGC]PSFRHGGPSSGAPPPS-NH2; thioacetal linkage between the bracketed Cys) [Example 61] registered its cGMP Assay (EC50, pM) w/BSA at 9000

Per the record, SXRRSSCFGGRIDRIGHQSGLGCPSFRHGGKSSGAPPPS (HOOC-(CH2)18-CO-(γGlu)-EKEKEKG-(AEEA)6-S-4Pal-RRSS[CFGGRIDRIGHQSGLGC]PSFRHGGKSSGAPPPS-NH2; thioacetal linkage between the bracketed Cys) [Example 86] has cGMP Assay (EC50, pM) w/BSA of 25200

Briefly, cGMP Assay (EC50, pM) w/BSA measured for EKXRSSCFGGKIDRIGHQSGLGCPSFRHGSPSSGAPPPS (HOOC-(CH2)18-CO-(γGlu)-EKEKEKG-PEG24-EK-βAla-RSS[CFGGKIDRIGHQSGLGC]PSFRHGSPSSGAPPPS-NH2; thioacetal linkage between the bracketed Cys) [Example 7] : 69600

Lab note: {C20 diacid}-[γGlu]EKEKEKGS[4Pal]RRSSCFGKRIDRIGHQSGLGCPSFRHGGKSSGAPPPS-NH2 (bridge 15-31 via thioacetal) [Example 79] gave cGMP Assay (EC50, pM) w/BSA of 4580

Measured cGMP Assay (EC50, pM) w/BSA, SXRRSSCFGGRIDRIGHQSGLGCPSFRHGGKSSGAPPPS (HOOC-(CH2)18-CO-(γGlu)-EKEKEKG-PEG12-S-4Pal-RRSS[CFGGRIDRIGHQSGLGC]PSFRHGGKSSGAPPPS-NH2; thioacetal linkage between the bracketed Cys) [Example 82] : 32600

Kindly note the recorded cGMP Assay (EC50, pM) w/BSA for XEKEKEKGSXRRSSCFGGRIDRIGHQSGLGCPSFRHGGPSSGAPPPS (HOOC-(CH2)18-CO-(γGlu)-EKEKEKGS-4Pal-RRSS[CFGGRIDRIGHQSGLGC]PSFRHGGPSSGAPPPS-NH2; thioacetal linkage between the bracketed Cys) [Example 2] , which is 93400

Record summary for XEKEKEKGEKGRSSCFGGKIDRIGHYSGLGCPSFRHGGPSSGAPPPS (HOOC-(CH2)18-CO-(γGlu)-EKEKEKGEKGRSS[CFGGKIDRIGHYSGLGC]PSFRHGGPSSGAPPPS-NH2; disulfide linkage between the bracketed Cys) [Example 45] : reported cGMP Assay (EC50, pM) w/BSA = 25200

Given item {C20 diacid}-[γGlu]EKEKEKGS[4Pal]RRSSCFGGRIDRIGHQSGLGCPSFRHRITAREDKQGEA-NH2 (disulfide 15-31) [Example 26] , the value recorded as its cGMP Assay (EC50, pM) w/BSA is 17800

For record {C20 diacid}-[γGlu]EKEKEKGEK[βAla]RSSCFGGRIDRIGHYSGLGCPSLRHGGPSSGAPPPS-NH2 (bridge 15-31 via thioacetal) [Example 63] the listed cGMP Assay (EC50, pM) w/BSA is 63800

response.value for {C20 diacid}-[γGlu]EKEKEKGEK[βAla]RSSCFGGRIDRIGHYSGLGCPSFRHGGPSSGAPPPS-NH2 (bridge 15-31 via thioacetal) [Example 56] (field: cGMP Assay (EC50, pM) w/BSA) = 145000

Measured cGMP Assay (EC50, pM) w/BSA, SXRRSSCFGGRIDRIGHYSGLGCPSFRHGGKSSGAPPPS (HOOC-(CH2)18-CO-(γGlu)-EKEKEKG-PEG24-S-4Pal-RRSS[CFGGRIDRIGHYSGLGC]PSFRHGGKSSGAPPPS-NH2; thioacetal linkage between the bracketed Cys) [Example 95] : 7030

Sure, the documented cGMP Assay (EC50, pM) w/BSA for {C20 diacid}-[γGlu]EKEKEKGS[4Pal]RRSSCFGGRIDRIGHQSGLGCPSFRHRITAREDKQGYA-NH2 (disulfide 15-31) [Example 25] is 12000
